Documented Tmax across a set of molecules
assay_remarks: Tmax in Sprague-Dawley rat at 10 mg/kg, po
Assay type: ADME, organism-based
Set-up: dose 10 mg/kg, route oral
condition_summary: in vivo
measurement_name: Tmax (h)

INSERT INTO measurements (molecule, measurement_name, experimental_result) VALUES
  ('Cc1cccc2c1C(=O)NC1CNCCN21 (single isomer, unassigned; (+))', 'Tmax', 0.5),
  ('Cc1ccc2c(c1)N1CCNCCC1NC2=O (stereo in doubt; (+)-3c)', 'Tmax', 1.5);

====

assay_system: 5-hydroxytryptamine receptor 2C (Homo sapiens)
Sequence (whole entry): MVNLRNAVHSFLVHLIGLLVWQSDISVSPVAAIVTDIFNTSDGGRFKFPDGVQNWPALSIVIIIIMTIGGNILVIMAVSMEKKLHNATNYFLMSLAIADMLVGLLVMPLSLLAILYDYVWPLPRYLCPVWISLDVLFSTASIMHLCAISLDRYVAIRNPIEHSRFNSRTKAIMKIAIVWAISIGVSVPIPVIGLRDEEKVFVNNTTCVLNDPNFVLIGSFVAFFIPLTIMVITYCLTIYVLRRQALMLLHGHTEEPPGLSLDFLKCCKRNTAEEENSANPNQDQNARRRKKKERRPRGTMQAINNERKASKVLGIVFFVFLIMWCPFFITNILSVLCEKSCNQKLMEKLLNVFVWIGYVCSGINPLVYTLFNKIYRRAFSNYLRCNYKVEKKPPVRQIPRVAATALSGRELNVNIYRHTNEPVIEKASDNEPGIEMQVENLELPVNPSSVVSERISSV
assay_remarks: Intrinsic activity at human recombinant 5HT2C receptor at 3 uM expressed in HEK293E cells by FLIPR assay relative to control
Format: cell-based
Lab note: compare Intrinsic activity against 0.9. Equal or greater, write YES. Smaller, write NO.

INSERT INTO results (molecule, class_label) VALUES
  ('Cc1ccc2c(c1)C(=O)NC1CNCCN21 (single isomer, unassigned)', 'YES'),
  ('O=C1NC2CNCCN2c2ccc(Cl)cc21 (single isomer, unassigned)', 'YES'),
  ('Clc1cccc(N2CCNCC2)c1', 'YES'),
  ('Cc1ccc2c(c1)N1CCNCC1NC2=O (single isomer, unassigned)', 'YES'),
  ('O=C1NC2CNCCN2c2cccc(Cl)c21 (stereo unspecified)', 'NO'),
  ('O=C1NC2CNCCN2c2cccc(C(F)(F)F)c21 (single isomer, unassigned)', 'YES'),
  ('Cc1ccc2c(c1)N1CCNCCC1NC2=O (stereo in doubt; (+)-3c)', 'YES'),
  ('Cc1cccc2c1N1CCNCC1NC2=O (stereo unspecified)', 'NO'),
  ('O=C1NC2CCNCCN2c2ccccc21 (single isomer, unassigned)', 'NO'),
  ('Cc1cccc2c1C(=O)NC1CCNCCN21 (stereo unspecified)', 'YES');
